The values you see were collected from ChEMBL document CHEMBL1255504.

Biological target: Protein Mdm4 (Homo sapiens) (UniProt O15151)
Sequence (O15151 whole entry): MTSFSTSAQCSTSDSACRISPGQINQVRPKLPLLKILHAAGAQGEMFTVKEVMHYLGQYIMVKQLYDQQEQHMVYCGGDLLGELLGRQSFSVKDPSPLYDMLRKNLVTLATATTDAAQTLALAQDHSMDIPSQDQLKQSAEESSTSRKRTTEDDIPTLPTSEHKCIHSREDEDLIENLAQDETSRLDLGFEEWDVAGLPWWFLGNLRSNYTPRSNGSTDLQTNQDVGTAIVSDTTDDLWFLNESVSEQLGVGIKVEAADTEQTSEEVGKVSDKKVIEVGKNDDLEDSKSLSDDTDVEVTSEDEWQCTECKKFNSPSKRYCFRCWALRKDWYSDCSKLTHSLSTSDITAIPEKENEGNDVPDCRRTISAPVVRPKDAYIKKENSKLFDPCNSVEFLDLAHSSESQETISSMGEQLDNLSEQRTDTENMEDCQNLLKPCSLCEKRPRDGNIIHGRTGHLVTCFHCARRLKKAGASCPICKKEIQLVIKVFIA
Assay: Inhibition of GST-tagged MDMX expressed in Escherichia coli harboring integrated p53-Hmd2 protein assessed as enzyme-p53 interaction by beta-galactosidase assay
Design: concentration or dose not given beside the values
Conditions: concentration not given here
Please provide measured inhibition for the entries that follow.
Provide the reading as a plain figure in %.

Entry H-CLFFNY-OH has what inhibition?
45

# inhibition lookup, item H-CRLLDF-OH
38

Endpoint output: inhibition of H-CKAVLF-OH . Value?
38

If you can, please state the reported inhibition value of H-CHLRWL-OH .
41

What value of inhibition has been reported for the following substance? H-CDLRWF-OH
37
